B1: Hairpin Ribozyme (parent)
chain: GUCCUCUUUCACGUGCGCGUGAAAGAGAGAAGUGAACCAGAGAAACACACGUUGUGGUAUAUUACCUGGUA

variants of: B1; assay: self-cleavage, relative activity (ratio to wild type); higher = more cleavage; co-transcriptional
endpoint.name: self-cleavage

The variant U14G G68U showed self-cleavage equal to 0.333

The variant G25C U63G showed self-cleavage equal to 0.189

The variant C12G C38G showed self-cleavage equal to 0.142

The variant G32C C50A showed self-cleavage equal to 0.109

The variant U2C A45G showed self-cleavage equal to 0.0514

The variant U8G C46G showed self-cleavage equal to 0.128

The variant A45C A49G showed self-cleavage equal to 0.0463

The variant A28C G34U showed self-cleavage equal to 1.23

The variant U2G A41G showed self-cleavage equal to 0.38

The variant G15C A44G showed self-cleavage equal to 0.146

The variant G19A A59C showed self-cleavage equal to 0.199

The variant C38G G69A showed self-cleavage equal to 0.196

The variant A26C G34U showed self-cleavage equal to 1.03

The variant G15A A39U showed self-cleavage equal to 0.351

The variant G17C A41C showed self-cleavage equal to 0.983

The variant A43C A44C showed self-cleavage equal to 0.259

The variant U2G U67G showed self-cleavage equal to 0.194

The variant C37A A49C showed self-cleavage equal to 0.0162

The variant C12A A31U showed self-cleavage equal to 0.104

The variant C4A G57A showed self-cleavage equal to 0.117

The variant G32A G51C showed self-cleavage equal to 0.113

The variant U70C A71C showed self-cleavage equal to 1.79

The variant A35U U58A showed self-cleavage equal to 0.464

The variant G1U G40U showed self-cleavage equal to 0.111

The variant G13U G17C showed self-cleavage equal to 0.494

The variant G1U G68A showed self-cleavage equal to 0.124

The variant A22C A30U showed self-cleavage equal to 0.0473

The variant G27U G32C showed self-cleavage equal to 0.129

The variant G40A G56U showed self-cleavage equal to 0.0994

The variant A36C U52C showed self-cleavage equal to 0.556

The variant A24G A49G showed self-cleavage equal to 0.352

The variant A11U U53A showed self-cleavage equal to 0.679

The variant U9C A41U showed self-cleavage equal to 0.966

The variant G54U U60C showed self-cleavage equal to 0.834

The variant A44G U52G showed self-cleavage equal to 0.231

The variant G1A U70A showed self-cleavage equal to 0.198

The variant U7C A23G showed self-cleavage equal to 0.6

The variant U52C U53C showed self-cleavage equal to 1.07

The variant G40U A49G showed self-cleavage equal to 0.175

The variant U9C U20C showed self-cleavage equal to 0.885

The variant C37U G57A showed self-cleavage equal to 0.169

The variant G29U G40A showed self-cleavage equal to 0.121

The variant A26C A49U showed self-cleavage equal to 0.239

The variant A26C G69A showed self-cleavage equal to 0.327

The variant A28C G56U showed self-cleavage equal to 0.0871
